System: OVCAR-3
Assay: NCI tumour cell line growth inhibition, 48 h
Activity calls are given as the source filed them. Rule as the data show it: active = GI50 up to about 1.1 µM and inactive = higher.
assay_metric: GI50

// assay OVCAR-3, entry CC1OC2=N[C@@H]1C(=O)N[C@@H](C(C)C)C1=N[C@H](C(=O)N[C@@H](C(C)C)C3=N[C@H](C(=O)N[C@@H](C(C)C)C4=N[C@H](C(=O)N[C@H]2C(C)C)C(C)O4)C(C)O3)C(C)O1 (some centres undefined) , GI50 value = > 10 µM (inactive)

// assay OVCAR-3, entry COc1ccc(OC)c(C2CCc3c(cnc4nc(N)nc(N)c34)C2)c1 (centres undefined) , GI50 value = 15.5 µM (inactive)

// assay OVCAR-3, entry Cc1cccc2c1Oc1ccccc1C2NC(=O)c1ccc([N+](=O)[O-])cc1 (centres undefined) , GI50 value = 99.3 µM (inactive)

// assay OVCAR-3, entry NS(=O)(=O)c1ccc(/C=C/c2ccc(O)c(O)c2)cc1 , GI50 value = 31.6 µM (inactive)

// assay OVCAR-3, entry COC(=O)C(=O)C(C(=O)C(=O)Nc1cc(C)ccc1C)c1nc2ccccc2nc1O (centres undefined) , GI50 value = > 100 µM (inactive)

// assay OVCAR-3, entry COc1cc(S(=O)(=O)Nc2ccc(-c3csc(N4C(=O)CSC4c4ccccc4)n3)cc2)ccc1Cl (centres undefined) , GI50 value = > 100 µM (inactive)

// assay OVCAR-3, entry CCOC(=O)c1cc(C(O)P2(=O)N(CC(C)(C)C)[C@@H]3CCCC[C@H]3N2CC(C)(C)C)cn1C(=O)OC(C)(C)C (some centres undefined) , GI50 value = 12.3 µM (inactive)

// assay OVCAR-3, entry COC(=O)C1(C)NCCc2c1[nH]c1ccccc21 (centres undefined) , GI50 value = > 100 µM (inactive)

// assay OVCAR-3, entry Clc1cc2ccccc2c2ccccc12 , GI50 value = 52.2 µM (inactive)
